Recorded IC50, one value per entry.
molecular target: Xanthine dehydrogenase/oxidase (Homo sapiens)
Sequence (P47989 whole entry): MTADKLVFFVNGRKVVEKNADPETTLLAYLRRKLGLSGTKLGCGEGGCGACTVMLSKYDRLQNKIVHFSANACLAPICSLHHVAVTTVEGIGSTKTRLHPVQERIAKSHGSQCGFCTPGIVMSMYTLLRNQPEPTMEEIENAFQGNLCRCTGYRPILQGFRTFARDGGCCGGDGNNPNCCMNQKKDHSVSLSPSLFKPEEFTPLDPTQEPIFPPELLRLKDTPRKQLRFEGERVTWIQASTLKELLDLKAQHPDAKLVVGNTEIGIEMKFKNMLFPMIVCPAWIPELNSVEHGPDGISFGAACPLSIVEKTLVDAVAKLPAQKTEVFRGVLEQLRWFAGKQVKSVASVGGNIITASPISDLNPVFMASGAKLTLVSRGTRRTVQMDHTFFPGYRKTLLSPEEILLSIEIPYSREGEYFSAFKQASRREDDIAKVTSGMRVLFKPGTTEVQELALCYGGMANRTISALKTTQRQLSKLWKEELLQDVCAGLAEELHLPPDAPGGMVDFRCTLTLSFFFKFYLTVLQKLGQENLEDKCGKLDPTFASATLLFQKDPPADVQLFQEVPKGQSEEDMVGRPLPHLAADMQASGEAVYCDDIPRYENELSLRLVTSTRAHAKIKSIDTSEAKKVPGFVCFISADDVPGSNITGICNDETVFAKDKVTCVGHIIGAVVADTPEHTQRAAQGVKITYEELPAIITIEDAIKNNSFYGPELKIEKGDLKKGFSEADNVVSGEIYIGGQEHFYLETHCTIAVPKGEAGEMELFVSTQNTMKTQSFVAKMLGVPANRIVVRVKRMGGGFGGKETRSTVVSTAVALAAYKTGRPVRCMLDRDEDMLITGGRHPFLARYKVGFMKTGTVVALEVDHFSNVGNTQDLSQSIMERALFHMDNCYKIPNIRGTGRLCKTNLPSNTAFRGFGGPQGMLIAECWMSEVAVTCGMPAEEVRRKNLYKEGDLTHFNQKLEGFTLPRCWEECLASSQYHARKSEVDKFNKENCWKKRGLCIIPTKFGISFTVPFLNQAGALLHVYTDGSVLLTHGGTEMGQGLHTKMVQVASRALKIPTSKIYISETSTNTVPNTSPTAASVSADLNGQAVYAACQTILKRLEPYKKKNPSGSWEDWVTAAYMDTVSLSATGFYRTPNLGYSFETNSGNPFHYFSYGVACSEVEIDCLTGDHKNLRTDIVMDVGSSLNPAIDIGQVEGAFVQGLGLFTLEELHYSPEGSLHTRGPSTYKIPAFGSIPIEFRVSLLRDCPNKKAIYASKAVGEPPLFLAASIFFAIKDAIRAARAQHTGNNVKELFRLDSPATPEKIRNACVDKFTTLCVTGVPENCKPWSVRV

Sample records with IC50:
COC(=O)CCc1ccccc1O[C@@H]1O[C@H](CO)[C@@H](O)[C@H](O)[C@H]1O [METHYL DIHYDROMELILOTOSIDE] ... > 146 µM
OC/C=C/c1ccccc1O[C@@H]1O[C@H](CO[C@@H]2OC[C@](O)(CO)[C@H]2O)[C@@H](O)[C@H](O)[C@H]1O [CINNACASOLIDE B] ... > 113 µM

# compound COC(=O)c1cccc(O[C@@H]2O[C@H](CO[C@@H]3OC[C@](O)(CO)[C@H]3O)[C@@H](O)[C@H](O)[C@H]2O)c1 [CINNACASOLIDE A] ; its IC50 = > 112 µM

# compound COc1ccccc1/C=C/C=O ; its IC50 = 85.1 µM
